B1: library; numbered along this chain (parent)
chain: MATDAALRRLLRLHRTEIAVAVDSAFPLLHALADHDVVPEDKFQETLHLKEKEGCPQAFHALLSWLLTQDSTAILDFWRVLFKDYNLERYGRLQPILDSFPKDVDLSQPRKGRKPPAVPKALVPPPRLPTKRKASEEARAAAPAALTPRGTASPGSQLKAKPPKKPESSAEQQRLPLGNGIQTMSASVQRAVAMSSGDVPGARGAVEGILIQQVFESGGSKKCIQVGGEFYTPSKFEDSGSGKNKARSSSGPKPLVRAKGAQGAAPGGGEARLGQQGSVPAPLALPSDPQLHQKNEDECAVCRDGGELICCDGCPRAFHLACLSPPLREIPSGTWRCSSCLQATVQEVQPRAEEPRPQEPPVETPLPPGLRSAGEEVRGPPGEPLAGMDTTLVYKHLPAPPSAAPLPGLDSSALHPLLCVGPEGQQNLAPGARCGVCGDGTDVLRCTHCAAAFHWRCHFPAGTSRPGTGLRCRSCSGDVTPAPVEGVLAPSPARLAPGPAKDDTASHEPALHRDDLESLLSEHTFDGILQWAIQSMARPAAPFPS

# Variants of: B1
# EXPERIMENTAL_DETAILS: AIRE transcriptional activation functional score (insulin promoter-GFP; nonsense median 0, synonymous median 1) (normalised score); higher = higher AIRE activity (more reporter activation)
# STATED_CONDITIONS: with insulin promoter-GFP reporter in HEK293
Reported AIRE transcriptional activation functional score maps to class as: low value: < 0.7; medium value: ≥ 0.7 and < 1; high value: ≥ 1

| MUTATION_DESCRIPTOR | GROUP |
| --- | --- |
| N295A | medium value |

QUERY: Which AIRE transcriptional activation functional score category applies to "S24W" here?
RESULT: low value

QUERY: Which AIRE transcriptional activation functional score category applies to "A141W" here?
RESULT: high value

QUERY: Which AIRE transcriptional activation functional score category applies to "L291G" here?
RESULT: high value
